System: CAMKK2;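 further: KINOMEscan kinase panel screen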
Conditions: concentration: 1 μM, replicates: in singlicate; n = 1
Short version: %Inh at least 3% is Satisfied, less is Not satisfied.

>>> class_name("CS(=O)(=O)c1ccc(-c2c(-c3ncn[nH]3)sc(N3CCOCC3)c2C#N)cc1")
"Satisfied"
>>> class_name("COC(=O)c1c(-c2ccccc2)c2cc(OC)ccc2c(=O)n1Cc1ccccc1")
"Satisfied"
>>> class_name("Cc1ccccc1-n1cnc2c(N)ncnc21")
"Satisfied"
>>> class_name("CN1C(=O)C(Nc2ccc(Cl)c(C(=O)O)c2)=C(c2ccc(Cl)cc2)C1=O")
"Not satisfied"
>>> class_name("COc1cccc(NC(=O)NC2CCN(c3ccnc(Nc4ccc(F)cc4)n3)C2)c1 (stereo not drawn)")
"Satisfied"
>>> class_name("COc1ccc(Nc2nccc(NCCNC(=O)Nc3ccccc3F)n2)cc1")
"Not satisfied"
>>> class_name("CC(=O)Nc1nc2cnc(Nc3cc(NC(=O)c4cccc(CCC#N)c4)ccc3C)nc2s1")
"Not satisfied"
